In this section, each of the compounds is paired with its reported IC50.
study.system: Tyrosine-protein kinase SYK (Homo sapiens, UniProt P43405)
method.summary: Inhibition of human recombinant […] using poly-GT as substrate and [33P]ATP after 40 mins by beta counting
All answers are understood in nM, so give the number only.

Cn1cc(-c2cccc(-c3cnc(N)c(C(=O)N[C@H]4C5CC6CC4C[C@](O)(C6)C5)n3)c2)cn1
20

[Q] Quote IC50 reported for Cn1cc(-c2cccc(-c3cnc(N)c(C(=O)N[C@H]4C5CC6CC4C[C@@](O)(C6)C5)n3)c2)cn1 please.
[A] 40

Provenance of the data: ChEMBL document CHEMBL2016552
